# measurement notes: LC/MS quantification of serum fexaramine after PO or IP
# Assay type: in vivo, mice
# particulars: acute PO vs IP, 100 mg/kg
parameter measured: serum Fex level after PO compared to IP

Exercise: Consider the compound COC(=O)/C=C/c1cccc(N(Cc2ccc(-c3ccc(N(C)C)cc3)cc2)C(=O)C2CCCCC2)c1 [fexaramine] . State its measured serum Fex level after PO compared to IP.
Solution: 10 % of IP levels
